test protocol: Metabolic stability in human hepatic microsome
Format: in vitro ADME
settings: human, microsomes, pH 7.4, CL NADPH(+)
Positions of bridges follow the written chain, without caps; N, C: chain ends. Non-standard residues stand in square brackets, D forms with d. Residues, ends and D or L forms follow the SMILES beside them. *: point of attachment. NMeF = CN[C@@H](Cc1ccccc1)C(=O)O; NMeI = CC[C@H](C)[C@H](NC)C(=O)O; NMeL = CN[C@@H](CC(C)C)C(=O)O; NMeV = CN[C@H](C(=O)O)C(C)C; NMeA = CN[C@@H](C)C(=O)O; Piperidide = C1CCN(*)CC1; β3hA = C[C@H](N)CC(=O)O; Sar = CNCC(=O)O; tBu = CC(C)(C)*
observed property: microsomal CLint at 1 uM (µL/min/mg)
Report the figure in µL/min/mg without appending any unit label.

CC[C@H](C)[C@@H]1NC(=O)[C@H](CC(C)C)N(C)C(=O)[C@H](Cc2ccccc2)N(C)C(=O)[C@@H](C(C)C)NC(=O)C[C@H](C)NC(=O)[C@H](CC(C)C)N(C)C(=O)[C@H](C)N(C)C(=O)[C@H]([C@@H](C)O)NC(=O)[C@H](Cc2ccccc2)N(C)C(=O)[C@H](C)N(C)C1=O [DP-780] (cyclo(I[NMeA][NMeF]T[NMeA][NMeL][β3hA][dV][NMeF][NMeL])); 249
CC[C@H](C)[C@H]1C(=O)N2CCC[C@H]2C(=O)N(C)CC(=O)N[C@@H]([C@@H](C)O)C(=O)N[C@H](C(=O)N2CCCCC2)CC(=O)N[C@@H](C)C(=O)N[C@@H](C(C)C)C(=O)N(C)[C@@H](CC(C)C)C(=O)N(C)[C@@H](CC(C)C)C(=O)N(C)[C@@H](Cc2ccccc2)C(=O)N[C@@H](Cc2ccccc2)C(=O)N1C [DP-15] (AV[NMeL][NMeL][NMeF]F[NMeI]P[Sar]TD-Piperidide; lactam N-11); 34

Turning now to a further record.
Q) Identify the reported microsomal CLint at 1 uM for the following entry. CC[C@H](C)[C@H]1C(=O)N[C@@H](COC(C)(C)C)C(=O)N(C)[C@@H](Cc2ccccc2)C(=O)N(C)[C@@H](C(C)C)C(=O)N[C@H](C(=O)N2CCCCC2)CC(=O)N(C)[C@@H](C)C(=O)N(C)[C@@H](Cc2ccccc2)C(=O)N[C@@H](CC(C)C)C(=O)N(C)[C@@H](CC(C)C)C(=O)N[C@@H]([C@@H](C)O)C(=O)N(C)CC(=O)N1C [DP-47] ([NMeA][NMeF]L[NMeL]T[Sar][NMeI]S(tBu)[NMeF][NMeV]D-Piperidide; lactam N-11)
A) 37
